- Test system: Escherichia coli KY 8349
- Test Protocol: Antibacterial spectrum, MIC by agar dilution method
- Type: cell-based
- Condition Parameters: KY8349, pH 7.2, strain produces neomycinkanamycin phosphotransferase Type I, read-out: Minimum Inhibitory Concentration
Measured Quantity: MIC (µg/mL)

CNCC1CCC(N)C(OC2C(N)CC(NC(=O)C(O)CN)C(OC3OCC(C)(O)C(N)C3O)C2O)O1 (racemic) [II-1]    0.4
CC1(O)COC(OC2C(NC(=O)C(O)CCN)CC(N)C(OC3OC(CN)CCC3N)C2O)C(O)C1N (single isomer, unassigned) [Compound I-2]    0.4
CNCC1CCC(N)C(OC2C(N)CC(NC(=O)C(O)CCN)C(OC3OCC(C)(O)C(NC)C3O)C2O)O1 (single isomer, unassigned) [reference compound]    0.1
CC1(O)COC(OC2C(NC(=O)C(O)CN)CC(N)C(OC3OC(CN)CCC3N)C2O)C(O)C1N (racemic) [Compound I-1]    0.4
CNCC1CCC(N)C(OC2C(N)CC(NC(=O)C(O)CCN)C(OC3OCC(C)(O)C(N)C3O)C2O)O1 (single isomer, unassigned) [II-2]    0.4
CNCC1CCC(N)C(OC2C(N)CC(NC(=O)C(O)CN)C(OC3OCC(C)(O)C(NC)C3O)C2O)O1 (racemic) [reference compound]    0.1

* * *

- Test system: Pseudomonas aeruginosa KY 8518
- Test Protocol: Antibacterial spectrum, MIC by agar dilution method
- Format: cell-based
- Condition Parameters: KY8518, pH 7.2, strain produces neomycinkanamycin phosphotransferase Type I, read-out: Minimum Inhibitory Concentration
A collection of compounds and their measured MIC
Measured Quantity: MIC (µg/mL)

CNCC1CCC(N)C(OC2C(N)CC(NC(=O)C(O)CN)C(OC3OCC(C)(O)C(NC)C3O)C2O)O1 (racemic) [reference compound]    1.56
CNCC1CCC(N)C(OC2C(N)CC(NC(=O)C(O)CN)C(OC3OCC(C)(O)C(N)C3O)C2O)O1 (racemic) [II-1]    1.56
CC1(O)COC(OC2C(NC(=O)C(O)CCN)CC(N)C(OC3OC(CN)CCC3N)C2O)C(O)C1N (single isomer, unassigned) [Compound I-2]    0.78
CNCC1CCC(N)C(OC2C(N)CC(NC(=O)C(O)CCN)C(OC3OCC(C)(O)C(N)C3O)C2O)O1 (single isomer, unassigned) [II-2]    1.56
CC1(O)COC(OC2C(NC(=O)C(O)CN)CC(N)C(OC3OC(CN)CCC3N)C2O)C(O)C1N (racemic) [Compound I-1]    0.78
CNCC1CCC(N)C(OC2C(N)CC(NC(=O)C(O)CCN)C(OC3OCC(C)(O)C(NC)C3O)C2O)O1 (single isomer, unassigned) [reference compound]    1.56

* * *

A collection of compounds and their measured MIC
- System: Escherichia coli KY Z-343
- Test Protocol: Antibacterial spectrum, MIC by agar dilution method
- Format: cell-based
- Condition Parameters: KYZ343, pH 7.2, strain produces kanamycin acetyltransferase, read-out: Minimum Inhibitory Concentration
Measured Quantity: MIC (µg/mL)

CNCC1CCC(N)C(OC2C(N)CC(NC(=O)C(O)CN)C(OC3OCC(C)(O)C(N)C3O)C2O)O1 (racemic)    0.4
CC1(O)COC(OC2C(NC(=O)C(O)CN)CC(N)C(OC3OC(CN)CCC3N)C2O)C(O)C1N (racemic)    0.4
CNCC1CCC(N)C(OC2C(N)CC(NC(=O)C(O)CCN)C(OC3OCC(C)(O)C(NC)C3O)C2O)O1 (single isomer, unassigned) [reference compound]    0.1
CC1(O)COC(OC2C(NC(=O)C(O)CCN)CC(N)C(OC3OC(CN)CCC3N)C2O)C(O)C1N (single isomer, unassigned)    0.2
CNCC1CCC(N)C(OC2C(N)CC(NC(=O)C(O)CN)C(OC3OCC(C)(O)C(NC)C3O)C2O)O1 (racemic) [reference compound]    0.2
CNCC1CCC(N)C(OC2C(N)CC(NC(=O)C(O)CCN)C(OC3OCC(C)(O)C(N)C3O)C2O)O1 (single isomer, unassigned)    0.2
